# Test system: gene editing with Cas9
# assay_name: Screen of 322 new SSAP proteins, gene editing activity with Cas9 (Table 5)
# Type: cell-based
# run_conditions: normalized
property_measured: Cas9 with SSAP activity (normalized)
A bare number is all that is needed in reply.

SSAP_201: SEQ ID NO: 370; Streptomyces reniochalinae (protein, listed as Streptomyces reniochalinae) SQISNAVAKRDNSPGAMVQQYKADFSTVLPDHVKPDTWVRLAQGVLRRDKNLAQAAERNPGSLMTALLDCARLGHEPGTESFYLVPFGGEVQGIEGYRGVVERMYRAGAIASVKAEVVCQGDDFDYQPDMDKPRHRVDWFGDRGPIVGAYAYAIFKDGSTSRVAVINRAYIDKVKKESKGSDRATSPWMKWEEQMVLKTVAKRLEPWVPTSNEWRREQLRAAREVANEPTPPTTPAPPAPEQVDPDTGEVIDGELVDDTPTQ
−0.195

Kindly review the next molecule as well.
Lookup result for SSAP_13: SEQ ID NO: 182 (protein) ANELGIFSVDNLNMTTIKQYLDGGGKASDAELVLLINLCKQNNMNPFMKEVYFIKYGNQPAQIVVSRDFYRKRAFQNPNFVGIEVGVIVLNKDGVLEHNEGTFKTHEQELVGAWARVHLKNTEIPVYVAVSYDEYVQMKDGHPNKMWTNKPCTMLGKVAESQALRMAFPAEFSGTYGEEEFPEPEKEPREVNGVKEPDRAQIESFDKEDYAAKKIEELKEKAQPQKEVVEETGEVIDEEPLEGF ; measured Cas9 with SSAP activity (normalized): −0.403
